# experimental_target: T1, AS154 VHH (camel-derived)
# T1 construct: One of the 10 different camel-derived nanobodies; not shown: His tag (VHH-His)
# T1 sequence (VHH, as listed by the source): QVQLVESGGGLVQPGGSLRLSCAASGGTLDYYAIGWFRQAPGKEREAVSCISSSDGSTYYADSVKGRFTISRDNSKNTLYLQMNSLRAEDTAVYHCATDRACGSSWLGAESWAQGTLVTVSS
# test: indirect ELISA, VHH coated

{"columns": ["binder", "binding result"],
 "data": [
  ["R166.G3 (antibody, V domains shown, Rabbit monoclonal; also called clone R166.G3) VH: QSVEESGGRLVTPGTPLTLTCTVSGIDLSRYAMGWVRQAPGKGLEYIGIIGYGGNTNYANWAKGRFTISKTSSTTVDLKMTSPTTEDTATYFCARDNKSGGNNGYPYYGLDLWGPGTLVTVSS VL: AYDMTQTPASVEVPVGGTVTINCQASQSISSHLAWYQQKRGQPPKVLIYYASTLASGVSSRFKGSGSGTEYTLTISGVECADAATYFCHQSYSGSDVDNTFGGGTEVVVRG", "binds"],
  ["R166.E7 (antibody, V domains shown, Rabbit monoclonal; also called clone R166.E7) VH: QSVEESGGRLVTPGTPLTLTCTVSGFSLSSFAMSWVRQAPGKGLEWIGIIYTGGTRDYATWAKGRFTISKTSTTVDLKMTSPTTEDTATYFCARDRSPDYSAAFNLWGQGTLVTVSS VL: IVMTQTPSSKSVPVGDTVTINCQASESVYSNNHLAWFQQKPGQPPKLLIYSASTLESGVPSRFKGSGSGTQFTLTISGVQCDDAATYYCAGYKSSDTDGTSFGGGTEVVVKG", "binds"],
  ["R166.E3 (antibody, V domains shown, Rabbit monoclonal; also called clone R166.E3) VH: QSLEESGGRLVTPGTPLTLTCTVSGIDLSSCVLIWVRQAPEKGLEWIGFIYGSGNAYYANWAKGRFTISKTSSTTVDLKITSPTTEDTATYFCARSQEDDSFGYGFNLWGQGTLVTVSS VL: AYDMTQTPASVEVAVGGTVTINCQASQSIGTYLSWYQQKPGQPPKLLIYRASTLTSGVSSRFKGSGSGTQFTLTISGVECADAATYYCQEGYSDINVNNIFGGGTEVVVKG", "binds"]
]}
